System: MERS-CoV
Assay remarks: microbe, parasite or virus in culture
Assay type: cell-based
Condition details: read-out: IC50 against MERS-CoV infection
pIC50: −log10 of the molar value.
Quantity measured: pIC50

Prompt line: Field request: pIC50 | item: CC1(C)CCC(C)(C)c2cc(C(=O)Nc3ccc(C(=O)O)cc3)ccc21
Response line: > 6.00

The values you see were collected from patent US12213955B2.
